These measurements were taken from patent EP2140864A2.

# Assay System: human 5HT4 receptor (Homo sapiens, UniProt Q13639)
# Construct: expressed in transfected cells
# Sequence (Q13639 whole entry): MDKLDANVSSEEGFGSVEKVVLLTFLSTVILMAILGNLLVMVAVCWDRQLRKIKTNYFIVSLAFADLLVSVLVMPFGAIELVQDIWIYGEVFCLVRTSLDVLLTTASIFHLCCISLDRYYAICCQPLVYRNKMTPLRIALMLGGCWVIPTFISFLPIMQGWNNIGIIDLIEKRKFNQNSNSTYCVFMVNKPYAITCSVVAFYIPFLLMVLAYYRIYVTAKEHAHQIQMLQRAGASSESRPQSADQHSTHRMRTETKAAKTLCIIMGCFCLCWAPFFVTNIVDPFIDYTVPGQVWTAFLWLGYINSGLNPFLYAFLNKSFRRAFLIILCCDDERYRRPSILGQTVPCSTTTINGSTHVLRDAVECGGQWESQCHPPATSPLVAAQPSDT
# Measurement Notes: Radioligand binding, 5-HT4 receptor
# Condition Label: Table 8; Ki h5HT4 divided by Ki hGAL3
Reported Property: selectivity ratio h5HT4

# Structure String, Reported Property, Recorded Measurement
records = [
    ("COC[C@@H]1[C@@H](c2ccccc2)OCCN1c1nc(Nc2ccc(C)cc2)cc(N2CCCCC2)n1", "selectivity ratio h5HT4", ">30"),
    ("O=C1C(=Nc2ccc(Br)cc2)c2ccccc2N1c1ccccc1", "selectivity ratio h5HT4", ">30"),
    ("Cc1ccc(Nc2cc(N3CCCCC3)nc(N3CCN(c4ncccc4C(F)(F)F)CC3)n2)cc1", "selectivity ratio h5HT4", ">100"),
    ("CN(C)c1cc(Nc2ccc(Cl)c(Cl)c2)nc(Nc2ccccc2)n1", "selectivity ratio h5HT4", 14),
]

----------
# Assay System: human 5HT7 (Homo sapiens, UniProt P34969)
# Construct: expressed in transfected cells
# Sequence (P34969 1-445 isoform P34969-2): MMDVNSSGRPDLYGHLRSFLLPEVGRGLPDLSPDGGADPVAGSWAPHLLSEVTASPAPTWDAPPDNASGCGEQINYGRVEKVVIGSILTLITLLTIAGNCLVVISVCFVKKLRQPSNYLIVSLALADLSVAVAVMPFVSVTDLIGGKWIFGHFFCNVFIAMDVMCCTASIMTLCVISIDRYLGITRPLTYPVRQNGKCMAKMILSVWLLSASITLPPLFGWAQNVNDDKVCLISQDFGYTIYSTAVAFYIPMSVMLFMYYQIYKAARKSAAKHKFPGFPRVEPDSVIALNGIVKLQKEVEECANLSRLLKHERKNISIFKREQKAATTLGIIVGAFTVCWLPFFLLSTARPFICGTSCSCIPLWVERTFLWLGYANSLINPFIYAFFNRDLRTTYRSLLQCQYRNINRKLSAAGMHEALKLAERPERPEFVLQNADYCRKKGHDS
# Measurement Notes: Radioligand binding, 5HT7 receptor ([3H]-serotonin)
# Condition Label: Table 8; Ki h5HT7 divided by Ki hGAL3
selectivity ratio h5HT7 by entry:

# Structure String, selectivity ratio h5HT7
measured = [
    ("CN(C)c1cc(Nc2ccc(Cl)c(Cl)c2)nc(Nc2ccccc2)n1", ">30"),
    ("Cc1ccc(Nc2cc(N3CCCCC3)nc(N(C)CCc3ccccc3)n2)cc1", ">30"),
    ("O=C1C(=Nc2ccc(Br)cc2)c2ccccc2N1c1ccccc1", ">100"),
    ("COC[C@@H]1[C@@H](c2ccccc2)OCCN1c1nc(Nc2ccc(C)cc2)cc(N2CCCCC2)n1", ">30"),
    ("Cc1ccc(Nc2cc(N(C)C)nc(N(C)CCc3c[nH]c4ccccc34)n2)cc1", 20),
    ("CN(CCc1c[nH]c2ccccc12)c1nc(Nc2ccc(F)c(F)c2)cc(N2CCCCC2)n1", ">30"),
    ("Cc1ccc(Nc2cc(N3CCCCC3)nc(N(C)CCc3c[nH]c4ccccc34)n2)cc1", 11),
    ("O=C1C(=Nc2ccc(Cl)cc2)c2ccccc2N1c1ccccc1", ">100"),
    ("Cc1ccc(Nc2cc(N3CCCCC3)nc(N3CCN(c4ncccc4C(F)(F)F)CC3)n2)cc1", ">100"),
    ("O=C1C(=Nc2ccc(C(F)(F)F)cc2)c2ccccc2N1c1ccccc1", ">100"),
    ("COc1cccc(Nc2cc(N3CCCCC3)nc(N(C)CCc3c[nH]c4ccccc34)n2)c1", 21),
    ("O=C1C(=Nc2cccc(Cl)c2)c2ccccc2N1c1ccccc1", ">100"),
]

----------
selectivity ratio rDA Uptk by entry:
# Assay System: DA transporter (Rattus norvegicus, UniProt P23977)
# Sequence (P23977 whole entry): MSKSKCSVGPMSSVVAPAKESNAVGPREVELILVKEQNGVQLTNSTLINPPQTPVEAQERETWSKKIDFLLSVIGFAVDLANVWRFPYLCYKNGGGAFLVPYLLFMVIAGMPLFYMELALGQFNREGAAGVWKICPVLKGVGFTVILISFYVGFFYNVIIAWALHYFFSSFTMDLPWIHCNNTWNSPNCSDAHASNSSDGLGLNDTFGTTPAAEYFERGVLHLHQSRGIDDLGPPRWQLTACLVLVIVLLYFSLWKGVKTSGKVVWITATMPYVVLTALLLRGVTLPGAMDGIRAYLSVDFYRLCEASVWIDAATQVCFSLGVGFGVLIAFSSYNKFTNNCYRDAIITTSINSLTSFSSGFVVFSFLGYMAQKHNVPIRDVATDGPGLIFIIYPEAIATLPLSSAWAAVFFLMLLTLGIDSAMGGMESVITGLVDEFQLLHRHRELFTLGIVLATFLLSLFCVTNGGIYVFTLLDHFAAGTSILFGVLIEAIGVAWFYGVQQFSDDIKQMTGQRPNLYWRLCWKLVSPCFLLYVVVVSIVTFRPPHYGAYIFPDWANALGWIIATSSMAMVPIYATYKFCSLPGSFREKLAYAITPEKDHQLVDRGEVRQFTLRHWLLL
# Measurement Notes: Binding at native DA transporter
# Condition Label: Table 8; Ki rDA Uptk divided by Ki hGAL3

# Compound, selectivity ratio rDA Uptk
records = [
    ("COc1cccc(Nc2cc(N3CCCCC3)nc(N(C)CCc3c[nH]c4ccccc34)n2)c1 [Example 17]", ">100"),
    ("CN(CCc1c[nH]c2ccccc12)c1nc(Nc2ccc(F)c(F)c2)cc(N2CCCCC2)n1 [Example 15]", ">100"),
    ("CN(C)c1cc(Nc2ccc(Cl)c(Cl)c2)nc(Nc2ccccc2)n1 [Example 60]", ">100"),
    ("Cc1ccc(Nc2cc(N3CCCCC3)nc(N3CCN(c4ncccc4C(F)(F)F)CC3)n2)cc1 [Example 34]", ">100"),
    ("Cc1ccc(Nc2cc(N(C)C)nc(N(C)CCc3c[nH]c4ccccc34)n2)cc1 [Example 77]", ">30"),
    ("COC[C@@H]1[C@@H](c2ccccc2)OCCN1c1nc(Nc2ccc(C)cc2)cc(N2CCCCC2)n1 [Example 49]", 10),
    ("O=C1C(=Nc2ccc(Br)cc2)c2ccccc2N1c1ccccc1 [Example 98]", ">100"),
    ("O=C1C(=Nc2ccc(Cl)cc2)c2ccccc2N1c1ccccc1 [Example 97]", ">100"),
]
